Provenance of the data: the antibiotic and cytotoxicity screens of Wong et al. (2023)

# Test system: HepG2
# assay_info: cytotoxicity call (relative viability < 0.9)
# test_conditions: 10 µM
Among all 39,000 compounds or so, about 3,300 (8.5%) were called active. Shown is part of a subset that was picked to be rich in actives.
In this exercise, the only acceptable responses are label 1 (active), label 0 (inactive)

As a guide, the following entries are already answered.
| smiles_str | measurement_target | qualitative_label |
| --- | --- | --- |
| C=C(C)COc1ccc([N+](=O)[O-])cc1 | HepG2 | label 0 |
| CNC[C@H]1Oc2cc(C#CC(C)(C)O)ccc2S(=O)(=O)N([C@H](C)CO)C[C@@H]1C | HepG2 | label 0 |
| O=C(C[C@@H]1CC[C@@H]2[C@H](COC[C@H](O)CN2C(=O)Nc2cccc(Cl)c2)O1)NCCCN1CCOCC1 | HepG2 | label 0 |
| O=[N+]([O-])c1ccc(Oc2ccc(-c3ccccc3)cc2)cc1 | HepG2 | label 1 |

What did this assay record as the result for C[C@@H]1CN([C@@H](C)CO)C(=O)c2cccc(NS(=O)(=O)c3cccs3)c2O[C@H]1CN(C)S(=O)(=O)c1ccccc1 ?
label 0

What did this assay record as the result for COc1ccc(NC(=O)N(C)C[C@H]2Oc3ccc(NC(=O)C4CC4)cc3CC(=O)N([C@H](C)CO)C[C@@H]2C)cc1 ?
label 0

What did this assay record as the result for Cc1noc(C)c1NC(=O)Nc1ccc2c(c1)CC(=O)N([C@@H](C)CO)C[C@H](C)[C@@H](CN(C)C(=O)NC(C)C)O2 ?
label 0

What did this assay record as the result for CS(=O)(=O)Nc1ccc([N+](=O)[O-])cc1Oc1ccccc1 ?
label 0

What did this assay record as the result for C[C@@H]1CN([C@@H](C)CO)C(=O)Cc2cc(NS(=O)(=O)c3ccccc3)ccc2O[C@H]1CN(C)S(=O)(=O)c1cn(C)cn1 ?
label 0
